FYI, the data here is from paper PMC5540273.

System: AURKA
Conditions: concentration: 1 μM, replicates: in singlicate; n = 1;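 further: KINOMEscan kinase panel screen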

Record smiles: Cc1ccc(NC(=O)c2ccc(Cl)c(Cl)c2)cc1-c1ccc(C(=O)Nc2ccncc2)cc1
Target of assay: AURKA
Quantity unit: %
%Inh: 7

Record smiles: COc1cc(Nc2nccc(N3CCC(NS(=O)(=O)c4ccc(NC(C)=O)cc4)CC3)n2)cc(OC)c1OC
Target of assay: AURKA
Quantity unit: %
%Inh: 59

Record smiles: O=C(O)C(F)(F)F.O=c1[nH]ccc2nc(N[C@@H]3CCNC3)nc(Nc3ccc4c(c3)S(=O)(=O)CC4)c12
Target of assay: AURKA
Quantity unit: %
%Inh: 83

Record smiles: COC(=O)Nc1nc2ccc(Oc3ccc(CC(=O)Nc4cc(C(F)(F)F)ccc4F)cc3)cc2[nH]1
Target of assay: AURKA
Quantity unit: %
%Inh: 0

Record smiles: O=C(Nc1n[nH]c2nc(-c3cccc(O)c3)ccc12)C1CC1
Target of assay: AURKA
Quantity unit: %
%Inh: 9

Record smiles: Fc1cc(Cl)ccc1Nc1ccnc2cc(-c3ccc(CN4CCOCC4)o3)ccc12
Target of assay: AURKA
Quantity unit: %
%Inh: 89

Record smiles: O=C1NC(=O)C(c2ccccc2Cl)=C1Nc1cccc(Cl)c1
Target of assay: AURKA
Quantity unit: %
%Inh: 0

* * *

System: CSK
Settings: concentration: 1 μM, replicates: in singlicate; n = 1
Reported property: %Inh (%)

Record smiles: Cn1cc(-c2cnc(N)c3c(-c4ccc5c(c4)CCN5C(=O)Cc4ccccc4)csc23)cn1
Reported property: %Inh
Result value: 20
//
Record smiles: CN(c1ccc(NC(=O)Nc2cccc(Cl)c2)cc1)c1ccnc(N)n1.Cl
Reported property: %Inh
Result value: 7
//
Record smiles: Cl.N#CCc1ccc(Nc2nccc(Nc3ccc(Oc4ccccc4)cc3)n2)cc1
Reported property: %Inh
Result value: 31
//
Record smiles: c1ccc(Oc2ccc(Nc3ccnc4cc(-c5ccc(CN6CCCCC6)o5)ccc34)cc2)nc1
Reported property: %Inh
Result value: 71

* * *

Entries and their measured %Inh follow.
System: TESK1
Settings: concentration: 1 μM, replicates: in singlicate; n = 1
Reported property: %Inh (%)

Record smiles: CN(C)CCNS(=O)(=O)c1ccc(-c2ccnc3[nH]ccc23)cc1
Quantity unit: %
Result value: 74
//
Record smiles: Nc1ncc(-c2ccc3nccc(-c4ccncc4)c3c2)cc1S(=O)(=O)N1CCCCC1
Quantity unit: %
Result value: 20
//
Record smiles: COc1cccc2c(-c3ccncc3)c(-c3ccc(F)cc3)nn12
Quantity unit: %
Result value: 0
//
Record smiles: Nc1cccc(-c2ccc3c(N)n[nH]c3c2)c1
Quantity unit: %
Result value: 29
//
Record smiles: Cc1cccc(Nc2nc(NCCN)ncc2C(N)=O)c1
Quantity unit: %
Result value: 0
//
Record smiles: CN(C)CCOc1ccc(-c2cc(-c3ccc(Cl)c(O)c3)c(-c3ccncc3)[nH]2)cc1.Cl.Cl
Quantity unit: %
Result value: 19
//
Record smiles: CNc1nccc(-c2ccc3c(N)n[nH]c3c2)n1
Quantity unit: %
Result value: 31
//
Record smiles: O=C(Nc1n[nH]c2cc(-c3cccs3)ccc12)C1CC1
Quantity unit: %
Result value: 0
//
Record smiles: CN(c1ccc2c(c1)nc(NCc1ccccc1)n2C)c1ccnc(Nc2ccc(CS(C)(=O)=O)cc2)n1.Cl
Quantity unit: %
Result value: 0
//
Record smiles: COc1cccc(C2=C(Nc3cccc(O)c3)C(=O)NC2=O)c1
Quantity unit: %
Result value: 34
//
Record smiles: Nc1ncc(-c2cn[nH]c2)c2scc(-c3ccc4c(c3)CCN4C(=O)Cc3ccccc3)c12
Quantity unit: %
Result value: 59
//
Record smiles: Cc1nn2c(=O)cc(N3CCO[C@H](C)C3)nc2n1Cc1cccc(Cl)c1Cl
Quantity unit: %
Result value: 20
//
Record smiles: Fc1cc(Cl)ccc1Nc1ccnc2cc(-c3ccc(CN4CCSCC4)o3)ccc12
Quantity unit: %
Result value: 17
//
Record smiles: Cc1ccc(NC(=O)c2ccc(Cl)c(Cl)c2)cc1-c1ccc(C(=O)Nc2ccncc2)cc1
Quantity unit: %
Result value: 29
//
Record smiles: Cc1ccc(NC(=O)c2ccnc(N3CCCCC3)c2)cc1-c1ccc(C(=O)NCC2CC2)cc1
Quantity unit: %
Result value: 1
//
Record smiles: Cc1cc(-c2c(-c3ccc(F)cc3)ncn2CCCN2CCOCC2)nc(N)n1
Quantity unit: %
Result value: 14
//
Record smiles: CCn1c(-c2nonc2N)nc2c(-c3ccccc3)ncc(OCCCN)c21.O=C(O)C(F)(F)F.O=C(O)C(F)(F)F
Quantity unit: %
Result value: 0
//
Record smiles: Cc1ccc(O)cc1Nc1ccnc2ccc(C(C)(C)C)cc12
Quantity unit: %
Result value: 0

* * *

System: PRKG2
Conditions: concentration: 1 μM, replicates: in singlicate; n = 1
Class YES: %Inh at least 1%. Class NO: %Inh below 1%.

Record smiles: CC(C)(C)c1ccc(C(=O)Nc2cn3cc(-n4ccnc4)ccc3n2)cc1
Target of assay: PRKG2
Qualitative label: YES
//
Record smiles: Nc1cccc(-c2ccc3c(N)n[nH]c3c2)c1
Target of assay: PRKG2
Qualitative label: YES
//
Record smiles: CC(C)c1nc(-c2cccc(NS(=O)(=O)c3c(F)cccc3F)c2)c(-c2ccnc(Nc3ccc(N4CCOCC4)nc3)n2)s1.Cl
Target of assay: PRKG2
Qualitative label: NO
//
Record smiles: CNc1nccc(-c2ccc3c(N)n[nH]c3c2)n1
Target of assay: PRKG2
Qualitative label: YES
//
Record smiles: COc1cccc(-c2nc(-c3ccccc3)[nH]c2-c2ccncc2)c1
Target of assay: PRKG2
Qualitative label: NO
//
Record smiles: Cc1cccc(Nc2nc(NCCN)ncc2C(N)=O)c1
Target of assay: PRKG2
Qualitative label: NO
//
Record smiles: Cc1ccccc1CC(=O)N1CCc2cc(-c3cn(C)c4ncnc(N)c34)ccc21
Target of assay: PRKG2
Qualitative label: NO
//
Record smiles: CCNc1nccc(-c2c(-c3ccc(F)cc3)ncn2C2CCN(C)CC2)n1
Target of assay: PRKG2
Qualitative label: NO

* * *

Tested on: LYN
Conditions: concentration: 1 μM, replicates: in singlicate; n = 1
Class TRUE: %Inh at least 20%. Class FALSE: %Inh below 20%.

Compound: COC(=O)Nc1nc2ccc(Oc3ccc(CC(=O)Nc4cc(C(F)(F)F)ccc4F)cc3)cc2[nH]1
Qualitative label: FALSE
//
Compound: CSc1ccc(NC2=C(c3ccc(Cl)cc3)C(=O)NC2=O)cc1
Qualitative label: TRUE
//
Compound: COc1cc(Nc2nccc(N3CCC(NC(=O)Nc4ccc5c(c4)OCO5)C3)n2)cc(OC)c1OC (stereo not drawn)
Qualitative label: FALSE
//
Compound: O=C(Nc1n[nH]c2nc(-c3ccccc3O)ccc12)C1CC1
Qualitative label: FALSE
//
Compound: COc1cc(Nc2nccc(N3CCC(NS(=O)(=O)c4ccc(NC(C)=O)cc4)CC3)n2)cc(OC)c1OC
Qualitative label: TRUE
//
Compound: CN(c1ccc(NC(=O)N2CCN(CCCN3CCOCC3)CC2)cc1)c1ccnc(Nc2ccc(CS(C)(=O)=O)cc2)n1.Cl
Qualitative label: FALSE
//
Compound: O=C(O)C(F)(F)F.O=c1[nH]ccc2nc(N[C@@H]3CCNC3)nc(Nc3cc(Cl)cc(Cl)c3)c12
Qualitative label: TRUE
//
Compound: COC(=O)Nc1nc2ccc(Oc3ccc(NC(=O)Nc4cc(C(F)(F)F)ccc4F)cc3)cc2[nH]1.Cl
Qualitative label: TRUE
//
Compound: Cc1ccc(O)cc1Nc1ccnc2ccc(C(C)(C)C)cc12
Qualitative label: TRUE
//
Compound: Cl.Cl.NCC(NC(=O)c1cc(-c2cccnc2)c(-c2ccnc3[nH]ccc23)s1)c1ccccc1 (stereo not drawn)
Qualitative label: FALSE
//
Compound: c1ccc(Oc2ccc(Nc3ccnc4cc(-c5ccc(CN6CCCCC6)o5)ccc34)cc2)nc1
Qualitative label: FALSE
//
Compound: COc1cc(Nc2ccnc3cc(-c4ccncc4)ccc23)cc(OC)c1OC.Cl
Qualitative label: TRUE
//
Compound: CS(=O)(=O)c1cccc(CNc2nc(Nc3ccc4c(c3)CCC(=O)N4)ncc2C(F)(F)F)c1
Qualitative label: FALSE
//
Compound: Cc1ccc(Nc2ccnc(Nc3ccc(C)c(F)c3)n2)cc1O.Cl
Qualitative label: TRUE
//
Compound: CN1CCN(Cc2ccc(NC(=O)Nc3ccc(N(C)c4ccnc(Nc5ccc(CS(C)(=O)=O)cc5)n4)cc3)cc2)CC1.Cl
Qualitative label: TRUE
//
Compound: Nc1ncc(-c2ccc3nccc(-c4ccncc4)c3c2)cc1S(=O)(=O)N1CCCCC1
Qualitative label: FALSE
//
Compound: COc1cccc2c(-c3ccncc3)c(-c3ccc(F)cc3)nn12
Qualitative label: FALSE
//
Compound: CN(C)CCNS(=O)(=O)c1ccc(-c2ccnc3[nH]ccc23)cc1
Qualitative label: FALSE
//
Compound: COc1ccc(C2=C(Nc3cccc(O)c3)C(=O)NC2=O)cc1
Qualitative label: TRUE
//
Compound: Cc1ccc(NC(=O)c2ccnc(N3CCCCC3)c2)cc1-c1ccc(C(=O)NCC2CC2)cc1
Qualitative label: FALSE
//
Compound: Nc1ncc(-c2cn[nH]c2)c2scc(-c3ccc4c(c3)CCN4C(=O)Cc3ccccc3)c12
Qualitative label: TRUE
